These measurements were taken from the Human Domainome abundance scans (Beltran et al. 2025).

B1: Ankyrin-2, residues 3571 to 3650; numbered along this chain, Q01484 (parent)
chain: ERLAYIADHLGFSWTELARELDFTEEQIHQIRIENPNSLQDQSHALLKYWLERDGKHATDTNLVECLTKINRMDIVHLME

# Variants of: B1
# protocol-notes: abundance fitness (aPCA) (normalised: wild type 0, dead -1); higher = more abundant; growth selection in yeast, the domain comes from the species named
# protocol-conditions: Homo sapiens
Can you tell me abundance fitness for the items I'm about to list?
Lab note: write the figure by itself, no unit.

abundance fitness reported for this variant ERNAYIADHLGFSWTELARELDFTEEQIHQIRIENPNSLQDQSHALLKYWLERDGKHATDTNLVECLTKINRMDIVHLME [L3N] : -0.074

Just so you know, measured abundance fitness for ERLAYIADHLGFSWTELARELDFTEEQIHQIRIENPNSLQDQSHALLKYWLERDGKHFTDTNLVECLTKINRMDIVHLME [A58F] came out at -0.05

abundance fitness for ERLAYIADHLGFSWTELARELDFTENQIHQIRIENPNSLQDQSHALLKYWLERDGKHATDTNLVECLTKINRMDIVHLME [E26N] is -0.033

// sample ERLAYIADHLGFSWTELARALDFTEEQIHQIRIENPNSLQDQSHALLKYWLERDGKHATDTNLVECLTKINRMDIVHLME [E20A] , its abundance fitness was -0.118

// sample ERLAYIADHLGFSWTELARELDFTEEQIHQIRIENPNSLQDQGHALLKYWLERDGKHATDTNLVECLTKINRMDIVHLME [S43G] , its abundance fitness was -0.093

Short answer for ERCAYIADHLGFSWTELARELDFTEEQIHQIRIENPNSLQDQSHALLKYWLERDGKHATDTNLVECLTKINRMDIVHLME [L3C] : abundance fitness was -0.086

Documented abundance fitness of ERLAYIADHLGFSWTELARELDFAEEQIHQIRIENPNSLQDQSHALLKYWLERDGKHATDTNLVECLTKINRMDIVHLME [T24A] : -0.053

abundance fitness for ERLAYIADHLGFSWTELARELDFTEEQIHQIRISNPNSLQDQSHALLKYWLERDGKHATDTNLVECLTKINRMDIVHLME [E34S] is -0.018

Short answer for ERLAYIADHLGFSWTELARELDFTEEQIHQIRIENPNSLQDQSHALLKYWDERDGKHATDTNLVECLTKINRMDIVHLME [L51D] : abundance fitness was -0.058

The value of abundance fitness measured for the variant ERLAYSADHLGFSWTELARELDFTEEQIHQIRIENPNSLQDQSHALLKYWLERDGKHATDTNLVECLTKINRMDIVHLME [I6S] turned out to be -0.642

For this variant ( ERLAYIADHLGFSWTELARELDFTEEQIHQGRIENPNSLQDQSHALLKYWLERDGKHATDTNLVECLTKINRMDIVHLME [I31G] ), measured abundance fitness is -0.936

ERLAYIADHLGFSWTELARELDFTEEQIHQIRIENPNSLGDQSHALLKYWLERDGKHATDTNLVECLTKINRMDIVHLME [Q40G] has a reported abundance fitness of -0.146

The variant identified as ERLAYIADHLGFSWTELARELDFTEEQIHQIRIENPNSLQDQSHALLKYWLERDMKHATDTNLVECLTKINRMDIVHLME [G55M] registered its abundance fitness at -0.061

Noted for ERLAYIADHLGFSWTELARELDFKEEQIHQIRIENPNSLQDQSHALLKYWLERDGKHATDTNLVECLTKINRMDIVHLME [T24K] : its abundance fitness reads 0.162

The variant listed as ERLAYIADHLGQSWTELARELDFTEEQIHQIRIENPNSLQDQSHALLKYWLERDGKHATDTNLVECLTKINRMDIVHLME [F12Q] has a reported abundance fitness of -0.132

Documented abundance fitness of ERLAYIADHLGFSWTELARELDFTEEQIHQIRIENPNSLQDQSHALLKYWLERKGKHATDTNLVECLTKINRMDIVHLME [D54K] : 0.097

Entry ERLAYIADHLGFSWTELARELDFTEEQIHQIRIENPNSLQDQSHALLKYWLERNGKHATDTNLVECLTKINRMDIVHLME [D54N] — recorded abundance fitness = -0.033

Short answer for ERLAYIADHLGFSWTELARELDFTEEQIHQIRIENPNSLQDVSHALLKYWLERDGKHATDTNLVECLTKINRMDIVHLME [Q42V] : abundance fitness was -0.204

# abundance fitness (variant: ERLAYIADHLGFSWTELARELDFTEEQIHQIRIENPRSLQDQSHALLKYWLERDGKHATDTNLVECLTKINRMDIVHLME [N37R] ) is -0.068

The reported value for ERLAYIADHLGFSWTELDRELDFTEEQIHQIRIENPNSLQDQSHALLKYWLERDGKHATDTNLVECLTKINRMDIVHLME [A18D] in terms of abundance fitness is -0.514

// recorded abundance fitness for ERLAYIADHLGFSWTELARELGFTEEQIHQIRIENPNSLQDQSHALLKYWLERDGKHATDTNLVECLTKINRMDIVHLME [D22G] : -0.075

Record ERLAYIADHLGFSWTELARELDFTEEQIHQIRIENPNSLQDQSHALLKYWLERDGKSATDTNLVECLTKINRMDIVHLME [H57S] . Reported abundance fitness: 0.06

// field: abundance fitness; key: ERLAYIADHLGFSWTELARELDFTEEQIHQIRIENPNSLQNQSHALLKYWLERDGKHATDTNLVECLTKINRMDIVHLME [D41N] ; value = -0.02

The reported abundance fitness of the variant ERLAYIADHLGFSWTELARELDFTEEQIHQIRIENPNSLQDQSHALLKYPLERDGKHATDTNLVECLTKINRMDIVHLME [W50P] was -0.664

For this variant ( ERLAYIADHLGKSWTELARELDFTEEQIHQIRIENPNSLQDQSHALLKYWLERDGKHATDTNLVECLTKINRMDIVHLME [F12K] ), measured abundance fitness is -0.143

For this variant ( ERLAYIADHLGESWTELARELDFTEEQIHQIRIENPNSLQDQSHALLKYWLERDGKHATDTNLVECLTKINRMDIVHLME [F12E] ), measured abundance fitness is -0.191

Entry ERLAYIADHLGFSWTELARELDFTEPQIHQIRIENPNSLQDQSHALLKYWLERDGKHATDTNLVECLTKINRMDIVHLME [E26P] ; abundance fitness = -0.086
